- experimental details: Cytotoxicity against human RD cells
- Assay type: cell-based
measured parameter: CC50

Worked cases, CC50 given:
>>> print(df.to_string())
                                   compound  assay_value
0  OC[C@H]1O[C@@H](n2cnc3c(NCCCCc4ccccc4)ncnc32)[C@H](O)[C@@H]1O     > 313 µM
1  OC[C@H]1O[C@@H](n2cnc3c(NCc4ccccc4)ncnc32)C[C@@H]1O     > 366 µM
2  OC[C@H]1O[C@@H](n2cnc3c(NCCOc4ccccc4)ncnc32)C[C@@H]1O     > 337 µM
3  OC[C@H]1O[C@@H](n2cnc3c(NCCCOc4ccccc4)ncnc32)[C@H](O)[C@@H]1O     > 311 µM
4  C=CCC#CCNc1ncnc2c1ncn2[C@@H]1O[C@H](CO)[C@@H](O)[C@H]1O     > 434 µM
5  OC[C@H]1O[C@@H](n2cnc3c(NCCc4ccccc4)ncnc32)C[C@@H]1O     > 352 µM
6  O=C(Nc1ncnc2c1ncn2[C@@H]1O[C@H](CO)[C@@H](O)[C@H]1O)c1ccccc1     > 337 µM
7  O=C(Nc1ncnc2c1ncn2C(CO)OC(CO)CO)c1ccccc1 (centres undefined)     > 335 µM

Data request, read-out CC50, for OC[C@H]1O[C@@H](n2cnc3c(NCCCc4ccccc4)ncnc32)C[C@@H]1O
> 271 µM
